B1: tRNA (parent)
chain: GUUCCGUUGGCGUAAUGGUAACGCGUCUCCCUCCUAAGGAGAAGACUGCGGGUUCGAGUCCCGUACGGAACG

# Variants of: B1
# assayOverview: yeast fitness, log relative to wild type (ln ratio); higher = fitter; tRNA-Arg(CCU), competitive growth, 37 C, 1 M NaCl
Definition: the class of an entry is the range in lo = under -0.2, med = from -0.2 up to -0.06, hi = -0.06 and over that contains its yeast fitness (ln).

GUUCCGUUGGCGUAAUGGUAACGCGUCUCCCUCCUAAGGAGAAGAUUGCGGGUUCGAGUCCCGUAUGGGACG [C46U C66U A69G]    med

Problem: Sort into band: GCUCCUUUGGCGUAAUGGUAACGCGUUUCCCUCCUAAGGAGAAGAUUGCGGGUUCGAGUCCCGUAUGGGAUG [U2C G6U C27U C46U C66U A69G C71U]
Result: lo

Problem: Into which category would you place AGUCCAUUGGCGUAAUGGUAACGCGUCUCCCUCCUAAGGAGACGAUUGCGGGUUCGAGUCCCGUACGGAGCG [G1A U2G G6A A43C C46U A70G] ?
Result: med

Problem: Just checking, what class would you give ACUCCAUUGGCGUAAUGGUAACGCGUCUCCCUCCUAAGGAGAAGACUGCGGGUUCGAGUCCCGUAUGGGUCG [G1A U2C G6A C66U A69G A70U] here?
Result: hi

Problem: Lab note: which band did ACUCCAUUGGCGUAAUGGUAACGCGUCUCCCUCCUAAGGAGAAGACUGCGGGUUCGAGUCCCGUACGGAGCG [G1A U2C G6A A70G] land in?
Result: med
